Entries and their MIC
test system: Staphylococcus aureus; assay: Antibacterial activity against Staphylococcus aureus UL12; format: functional
Use µM as the unit, but write only the number.

{"COMPOUND STRING": "NCC(=O)Nc1cccc(NC(=O)Nc2ccccc2)c1", "MEASURED TARGET": "Staphylococcus aureus", "MIC (µM)": 1500}
{"COMPOUND STRING": "CN(C(=O)N(C)c1cccc(NC(=O)c2ccncc2)c1)c1ccccc1", "MEASURED TARGET": "Staphylococcus aureus", "MIC (µM)": 1000}
{"COMPOUND STRING": "CN(C(=O)N(C)c1ccccc1)c1ccccc1", "MEASURED TARGET": "Staphylococcus aureus", "MIC (µM)": 2500}
{"COMPOUND STRING": "CN(C(=O)N(C)c1cccc(N)c1)c1ccccc1", "MEASURED TARGET": "Staphylococcus aureus", "MIC (µM)": 2000}

Need MIC, item Nc1cccc(NC(=O)Nc2ccccc2)c1
2500

Item O=C(Nc1ccccc1)Nc1ccccc1 has what recorded MIC?
2000

Given the entry CN(C(=O)N(C)c1cccc(NC(=O)CN)c1)c1ccccc1 , report its measured MIC.
2500
